These entries and their values trace back to paper PMC10227015.

Entries and their measured pIC50 follow.
system.name: dCK-C3S-S74E
Sequence (P27707 whole entry S74E, form open): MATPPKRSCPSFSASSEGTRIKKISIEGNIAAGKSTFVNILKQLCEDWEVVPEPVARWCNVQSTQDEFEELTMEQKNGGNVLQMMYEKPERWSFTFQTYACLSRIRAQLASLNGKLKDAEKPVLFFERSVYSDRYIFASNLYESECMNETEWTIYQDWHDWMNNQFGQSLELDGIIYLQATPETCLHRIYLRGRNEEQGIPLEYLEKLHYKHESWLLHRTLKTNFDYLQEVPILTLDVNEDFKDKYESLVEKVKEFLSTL
assay.name: Enzymatic assay (PK/LDH coupled), dC phosphorylation by dCK in the presence of ATP
Type: biochemical, human
assay.conditions: presence of ATP, [dCK] = 50 nM (footnote A); read-out: ENZYMATIC ASSAY IC50
The read-out pIC50 is expressed as -log10 of concentration in moles per litre.

Example entries and their recorded answers appear below.
compound | pIC50
CCCN(c1nc(-c2nc(N)cc(N)n2)cs1)c1cc(-c2ccc(S(=O)(=O)N3CCOCC3)cc2)ccc1C [OR0617] | 6.74
CCCN(c1nc(-c2nc(N)cc(N)n2)cs1)c1cc(-c2ccc(S(=O)(=O)N(C)C)cc2)ccc1C [OR0618] | 6.86
CCCN(c1nc(-c2nc(N)cc(N)n2)cs1)c1cc(-c2ccc(C(=O)N3CCN(C)CC3)nc2)ccc1C [OR0612] | 6.71

Lookup: # query: pIC50 | item CCCN(c1nc(-c2nc(N)cc(N)n2)cs1)c1cc(-c2ccc(S(=O)(=O)N3CCN(C)CC3)c(OC)c2)ccc1C [OR0635] | system: dCK-C3S-S74E
Found: 7.18

Lookup: Follow-up entry: Cc1ccc(-c2ccc(OCCN3CCN(C)CC3)nc2)cc1N(CC(C)C)c1nc(-c2nc(N)cc(N)n2)cs1 [OR0608]
Found: 6.97

Lookup: Follow-up entry: Cc1ccc(-c2ccc(S(=O)(=O)N3CCN(C)CC3)cc2)cc1Nc1nc(-c2nc(N)cc(N)n2)cs1 [OR0614]
Found: 6.63

Lookup: Follow-up entry: Cc1ccc(-c2ccc(CCN3CCN(C)CC3)cc2)cc1N(CC(C)C)c1nc(-c2nc(N)cc(N)n2)cs1 [OR0603]
Found: 6.83

Lookup: Follow-up entry: CCCN(c1nc(-c2nc(N)cc(N)n2)cs1)c1cc(-c2ccc(S(N)(=O)=O)cc2)ccc1C [OR0615]
Found: 7.06

Lookup: Follow-up entry: Cc1ccc(-c2ccc(CCN3CCN(C)CC3)cc2)cc1N(CCCN)c1nc(-c2nc(N)cc(N)n2)cs1 [OR0611]
Found: 6.30

Lookup: Follow-up entry: CCCN(c1nc(-c2nc(N)cc(N)n2)cs1)c1cc(-c2ccc(S(=O)(=O)N3CCN(C)CC3)cc2C(F)(F)F)ccc1C [OR0642]
Found: 6.97

* * *

assay.name: Plasma pharmacokinetics after IP administration
Format: in vivo
assay.conditions: male, Swiss, mouse, mice, dose 40 mg/Kg
reported.endpoint: Cmax (µM)
Just the number in µM, nothing appended.

Example entries and their recorded answers appear below.
compound | unit.of.measure | Cmax
CCCN(c1nc(-c2nc(N)cc(N)n2)cs1)c1cc(-c2ccc(S(=O)(=O)N3CCN(C)CC3)cc2C(F)(F)F)ccc1C [OR0642] | µM | 4.1
CCCN(c1nc(-c2nc(N)cc(N)n2)cs1)c1cc(-c2ccc(S(=O)(=O)N3CCN(C)CC3)nc2)ccc1C [OR0634] | µM | 5.5

Lookup: Need Cmax, item CCCN(c1nc(-c2nc(N)cc(N)n2)cs1)c1cc(-c2ccc(S(=O)(=O)N3CCN(C)CC3)c(OC)c2)ccc1C [OR0635]
Found: 2

* * *

Test system: dCK-C3S-S74E
assay.name: Enzymatic assay (PK/LDH coupled), dC phosphorylation by dCK in the presence of UTP
Type: biochemical, human
assay.conditions: presence of UTP
reported.endpoint: ENZYMATIC ASSAY (Activation/Inhibition)

Example entries and their recorded answers appear below.
compound | system.name | ENZYMATIC ASSAY (Activation/Inhibition)
Cc1ccc(NC(=O)c2ccc(CN(C)C)cc2)cc1Nc1nc(-c2nccc(N)n2)cs1 [OR0155] | dCK-C3S-S74E | A/I
CCCN(c1nc(-c2nc(N)cc(N)n2)cs1)c1cc(-c2cnc(N)nc2)ccc1C [OR0613] | dCK-C3S-S74E | I
CCCN(c1nc(-c2nccc(N)n2)cs1)c1cc(-c2ccc(CCCN3CCN(C)CC3)cc2)ccc1C [OR0598] | dCK-C3S-S74E | I
CCCN(c1nc(-c2nc(N)cc(N)n2)cs1)c1cc(-c2ccc(CCN3CCN(C)CC3)cc2)ccc1C [OR0600] | dCK-C3S-S74E | I
Cc1ccc(-c2ccc(S(=O)(=O)N3CCN(C)CC3)cc2)cc1Nc1nc(-c2nc(N)cc(N)n2)cs1 [OR0614] | dCK-C3S-S74E | A/I

Lookup: # query: ENZYMATIC ASSAY (Activation/Inhibition) | item Cc1ccc(-c2ccc(CCN3CCN(C)CC3)cc2)cc1N(CC(C)C)c1nc(-c2nc(N)cc(N)n2)cs1 [OR0603] | system: dCK-C3S-S74E
Found: I

Lookup: Follow-up entry: Cc1ccc(NC(=O)c2ccc(CCN3CCN(C)CC3)cc2)cc1Nc1nc(-c2nccc(N)n2)cs1 [OR0146]
Found: A/I

* * *

Test system: CCRF-CEM cell line
assay.name: dCK cellular assay: CCRF-CEM proliferation in the presence of dT and dC
Format: cell-based, human
assay.conditions: Homo sapiens, CCRF-CEM; 39 nM, dT 200 µM + dC 1 µM; read-out: Cell proliferation of the CCRF-CEM cell line Mean (% prolif)
reported.endpoint: activity at 0.039 µM
# do not omit the unit; it follows the number

mol | activity at 0.039 µM
Cc1ccc(NC(=O)c2ccc(CN3CCN(C)CC3)cc2)cc1Nc1nc(-c2nccc(N)n2)cs1 | 94.3%
CCCN(c1nc(-c2nc(N)cc(N)n2)cs1)c1cc(-c2ccc(CCN3CCN(C)CC3)cc2)ccc1C | 91.6%
CCCN(c1nc(-c2nccc(N)n2)cs1)c1cc(-c2ccc(CCN3CCN(C)CC3)cc2)ccc1C | 85.8%

Continue with the next compound.
Lookup: Need activity at 0.039 µM, item "CCCN(c1nc(-c2nc(N)cc(N)n2)cs1)c1cc(-c2ccc(CCN3CCN(C)CC3)nc2)ccc1C"
Found: 67.1%

* * *

Entries and their measured Enzymatic activity (ATP) Mean (% activity) follow.
Tested on: dCK-C3S-S74E
assay.name: Enzymatic assay (PK/LDH coupled), dC phosphorylation by dCK in the presence of ATP
Assay type: biochemical, human
assay.conditions: 2.5 µM
Just the number in %, nothing appended.

Example entries and their recorded answers appear below.
mol | system.name | readout.value
Cc1ccc(-c2ccc(CN3CCN(C)CC3)cc2)cc1Nc1nc(-c2nccc(N)n2)cs1 | dCK-C3S-S74E | 27.8
Cc1ccc(-c2ccc(CCN3CCN(C)CC3)cc2)cc1Nc1nc(-c2nccc(N)n2)cs1 | dCK-C3S-S74E | 19.3
Cc1ccc(NC(=O)c2ccc(CN3CCN(C)CC3)cc2)cc1Nc1nc(-c2nc(N)cc(N)n2)cs1 | dCK-C3S-S74E | 16.5

Lookup: # query: Enzymatic activity (ATP) Mean (% activity) | item "CCCN(c1nc(-c2nc(N)cc(N)n2)cs1)c1cc(-c2ccc(CCN3CCN(C)CC3)cc2)ccc1C" | system: dCK-C3S-S74E
Found: -0.9

Lookup: Follow-up entry: "CCCN(c1nc(-c2nccc(N)n2)cs1)c1cc(-c2ccc(CCN3CCN(C)CC3)cc2)ccc1C"
Found: -9.9

Lookup: Follow-up entry: "CCCN(c1nc(-c2nc(N)cc(N)n2)cs1)c1cc(-c2ccc(CCN3CCN(C)CC3)nc2)ccc1C"
Found: 6.1

Lookup: Follow-up entry: "CCCN(c1nc(-c2nc(N)cc(N)n2)cs1)c1cc(-c2ccc(S(=O)(=O)N3CCN(C)CC3)cc2C(F)(F)F)ccc1C"
Found: -0.5

Lookup: Follow-up entry: "Cc1ccc(NC(=O)c2ccc(CN3CCN(C)CC3)cc2)cc1Nc1nc(-c2nccc(N)n2)cs1"
Found: 51.8

Lookup: Follow-up entry: "CCCN(c1nc(-c2nc(N)cc(N)n2)cs1)c1cc(-c2ccc(S(=O)(=O)N3CCN(C)CC3)c(OC)c2)ccc1C"
Found: 1.6

* * *

Entries and their measured Thermal Shift Assay Mean (ΔTm (º)) follow.
Test system: dCK-C3S-S74E
assay.name: Thermal shift assay (TSA)
assay.conditions: Figure 2b

compound | system.name | reported.endpoint | readout.value
CCCN(c1nc(-c2nc(N)cc(N)n2)cs1)c1cc(-c2ccc(S(=O)(=O)N3CCN(C)CC3)c(OC)c2)ccc1C [OR0635] | dCK-C3S-S74E | Thermal Shift Assay Mean (ΔTm (º)) | 20.7 º
CCCN(c1nc(-c2nc(N)cc(N)n2)cs1)c1cc(-c2ccc(CCN3CCN(C)CC3)nc2)ccc1C [OR0602] | dCK-C3S-S74E | Thermal Shift Assay Mean (ΔTm (º)) | 19.7 º
CCCN(c1nc(-c2nc(N)cc(N)n2)cs1)c1cc(-c2ccc(CCN3CCN(C)CC3)cc2)ccc1C [OR0600] | dCK-C3S-S74E | Thermal Shift Assay Mean (ΔTm (º)) | 20.0 º
CCCN(c1nc(-c2nc(N)cc(N)n2)cs1)c1cc(-c2ccc(S(=O)(=O)N3CCN(C)CC3)cc2C(F)(F)F)ccc1C [OR0642] | dCK-C3S-S74E | Thermal Shift Assay Mean (ΔTm (º)) | 22.2 º
CCCN(c1nc(-c2nccc(N)n2)cs1)c1cc(-c2ccc(CCN3CCN(C)CC3)cc2)ccc1C [OR0345] | dCK-C3S-S74E | Thermal Shift Assay Mean (ΔTm (º)) | 18.4 º
Cc1ccc(-c2ccc(CN3CCN(C)CC3)cc2)cc1Nc1nc(-c2nccc(N)n2)cs1 [OR0274] | dCK-C3S-S74E | Thermal Shift Assay Mean (ΔTm (º)) | 16.7 º

Continue with the next compound.
Lookup: Need Thermal Shift Assay Mean (ΔTm (º)), item Cc1ccc(-c2ccc(CCN3CCN(C)CC3)cc2)cc1Nc1nc(-c2nccc(N)n2)cs1 [OR0325]
Found: 17.8 º
